Target: T1, mouse GLP-1 receptor (mouse, UniProt O35659 22-463)
T1 sequence (looked up): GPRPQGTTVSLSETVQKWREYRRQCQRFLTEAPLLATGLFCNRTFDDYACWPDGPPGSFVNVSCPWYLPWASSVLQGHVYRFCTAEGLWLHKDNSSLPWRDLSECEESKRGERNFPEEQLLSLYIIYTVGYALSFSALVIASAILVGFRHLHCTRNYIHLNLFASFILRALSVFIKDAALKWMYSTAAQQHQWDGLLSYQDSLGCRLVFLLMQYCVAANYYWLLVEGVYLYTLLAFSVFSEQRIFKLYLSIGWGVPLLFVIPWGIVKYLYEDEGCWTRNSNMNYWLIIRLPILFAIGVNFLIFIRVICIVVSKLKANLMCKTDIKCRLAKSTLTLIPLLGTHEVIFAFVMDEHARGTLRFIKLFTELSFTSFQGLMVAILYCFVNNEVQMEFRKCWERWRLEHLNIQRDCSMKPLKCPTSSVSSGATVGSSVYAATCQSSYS
Test: cell-based or functional assay
Ends that are not written are not given here.
Classification by cAMP EC50 | ranges: lo (below 0.6 nM), mid (0.6 nM to below 0.9 nM), hi (0.9 nM or more)

// below: answered binders
binder: IP085 (Fc fusion) YSEGTFTSDYSKLLEEEAVRLFIEWLLAGAPPGGSGSTASSGSGSATGGGGAATHTCPPCPAPEF
classification: hi
--
binder: IP403 (Fc fusion) YSEGTHTSDLRILLEEEAVRLFIEKLLAGGGSGGGGSGGGGSGGGGSGGGGSGGGGSGGGGSGGGGSACPPC
classification: hi
--
binder: IP201 (Fc fusion) YSEGTFTSDYSKLLEEEAVRLFIEWLLAGPSSGAPPPSAAAGGSGSTASSGSGSATGGGGAATHTCPPCPAPEF
classification: mid
--
binder: IP327 (Fc fusion) YSEGTFTSDYSKLLEEEAVRLFIEWLLAGGGGGGGSGGGGSGGGGSGGGGSGGGGSGGGGSA
classification: mid

Request: Record IP322 (Fc fusion) YSEGTFTSDYSKLLEEEAVRLFIEWLVKGPGGGGGSGGGGSGGGGSGGGGSGGGGSA — which class?
Response: lo

Request: Record IP024 (Fc fusion) YSEGTFTSDYSKLLEEEAVRLFIEWLLAGAAAGGSGSTASSGSGSATGGGGAATHTCPPCPAPEF — which class?
Response: hi

Request: Record IP249 (Fc fusion) YSEGTFTSDYSKLLEEEAVRLFIEWLLAQKAAAGGSGSTASSGSGSATGGGGAATHTCPPCPAPEF — which class?
Response: hi

Request: Record IP267 (Fc fusion) YSEGTFTSDYSKLLEEEHVRLFIEWLVKGPGGGGGSGGGGSGGGGSGGGGSATHTCPPC — which class?
Response: hi

Request: Record IP304 (Fc fusion) YSEGTFTSDVSSYLERQAIEEFIAWLLKGGAAAGGSGSTASSGSGSATGGGGAATHTCPPC — which class?
Response: mid

Request: Record IP292 (Fc fusion) YSEGTFTSDYSKLLEEEAVRCFIEWLVKGGPGGGAPPCGGGGGGGGGGGGGGGGGGGACPPC — which class?
Response: hi

Request: Record IP236 (Fc fusion, cysteine pairing not given here; also: fused to IgG1-TM Fc) YSEGTFTSDYSKLLEEEAVRLFIEWLVKGPGGGGGSGGGGSGGGGSATHTCPPCPAPEF — which class?
Response: lo

Request: Record IP317 (Fc fusion) YSEGTFTSDVSSYLEKQAIDEFIAWLLKGGAAAGGSGSTASSGSGSATGGGGAATHTCPPC — which class?
Response: lo

Request: Record IP147 (Fc fusion) YSEGTFTSDYSKLLEEEAVRLFIEWLVKGPAPPGGSGSTASSGSGSATGGGGAATHTCPPCPAPEF — which class?
Response: hi

Request: Record IP296 (Fc fusion) YSEGTFTSDYSKLLEEEAVRCFIEWLVKGGPSSGAPPCSGGGGGGGGGGGGGGGGGGGGGGGGACPPC — which class?
Response: hi

Request: Record IP279 (Fc fusion) YSEGTFTSDYSKLLEEEAVRLFIEWLVKGPSSGAPPPSGGGGGSGGGGSGGGGSGGGGSATHTCPPC — which class?
Response: lo

Request: Record IP280 (Fc fusion) YSEGTFTSDYSKLLEEEAVRLFIEWLVKGGPSSGAPPPSGGGGGSGGGGSGGGGSGGGGSATHTCPPC — which class?
Response: lo

Request: Record IP300 (Fc fusion) YSEGTFTSDYSKLLEEEAVRLFIEWLLAGAPPGGGGGGGGGGGGGGGGGGGGGACPPC — which class?
Response: hi

Request: Record IP325 (Fc fusion) YSEGTFTSDYSKLLEEEAVRLFIEWLVKGPGGGGGSGGGGSGGGGSGGGGSGGGGSGGGGSGGGGSGGGGSA — which class?
Response: mid

Request: Record IP264 (Fc fusion) YSEGTFTSDYSKLLEEEAVRLFIEWLVKGKGGGGGSGGGGSGGGGSGGGGSATHTCPPCPAPEF — which class?
Response: lo
